Origin of measurements: patent US11944613B2

target: CYP2J2 (Homo sapiens); experiment: CYP2J2 P450-Glo luciferase assay (FDA Approved Drug Library screen); conditions: read-out: Average inhibition CYP2J2 (%)
Counter-ions that a name gives are not always drawn.
// reported inhibition at 10 µM for each item listed
observable: inhibition at 10 µM (%)

>>> data_value("CC(C)/N=c1\\cc2n(-c3ccc(Cl)cc3)c3ccccc3nc-2cc1Nc1ccc(Cl)cc1")
79.1
>>> data_value("Cc1[nH]cnc1CN1CCc2c(c3ccccc3n2C)C1=O [c595, Alosetron•HCl]")
81.8
>>> data_value("CC(C)OC(=O)C(C)(C)Oc1ccc(C(=O)c2ccc(Cl)cc2)cc1 [c246, Fenofibrate]")
78
>>> data_value("C[C@]12CC[C@@H]3c4ccc(O)cc4CC[C@H]3[C@@H]1CC[C@@H]2O")
84.4
>>> data_value("CC(COc1ccccc1)N(CCCl)Cc1ccccc1 (stereo not drawn) [c089, Phenoxybenzamine•HCl]")
75
>>> data_value("Cc1cccc(CN2CCN(C(c3ccccc3)c3ccc(Cl)cc3)CC2)c1 (stereo not drawn) [c608, Meclizine Dihydrochloride]")
71.5

----------
// reported inhibition at 30 min, 10 μM for each item listed
target: CYP3A4 (Homo sapiens); test: in vitro
Sequence (P08684 whole entry): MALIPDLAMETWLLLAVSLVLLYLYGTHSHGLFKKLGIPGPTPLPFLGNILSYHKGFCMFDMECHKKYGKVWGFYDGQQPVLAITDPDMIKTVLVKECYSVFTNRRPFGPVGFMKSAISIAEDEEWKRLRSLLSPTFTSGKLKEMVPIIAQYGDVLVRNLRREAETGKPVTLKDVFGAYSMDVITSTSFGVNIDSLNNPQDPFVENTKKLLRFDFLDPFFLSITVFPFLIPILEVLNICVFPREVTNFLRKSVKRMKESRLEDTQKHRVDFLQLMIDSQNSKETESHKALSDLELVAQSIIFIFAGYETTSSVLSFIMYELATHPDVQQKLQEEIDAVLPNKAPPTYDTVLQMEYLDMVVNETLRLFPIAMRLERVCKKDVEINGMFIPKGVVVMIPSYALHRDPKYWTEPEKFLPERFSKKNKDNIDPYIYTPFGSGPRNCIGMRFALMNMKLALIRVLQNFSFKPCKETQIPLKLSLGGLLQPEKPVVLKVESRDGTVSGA
Where a name gives a salt, the structure may show the parent alone.
observable: inhibition at 30 min, 10 μM (%)

>>> data_value("CCC(=O)O[C@]1(C(=O)CCl)[C@@H](C)C[C@H]2[C@@H]3CCC4=CC(=O)C=C[C@]4(C)[C@@]3(F)[C@@H](O)C[C@@]21C [c146, Clobetasol Propionate]")
-4.3
>>> data_value("Cc1cccc(CN2CCN(C(c3ccccc3)c3ccc(Cl)cc3)CC2)c1 (stereo not shown) [c608, Meclizine Dihydrochloride]")
17.4
>>> data_value("Cc1[nH]cnc1CN1CCc2c(c3ccccc3n2C)C1=O [c595, Alosetron•HCl]")
14
>>> data_value("CC1(C)O[C@@H]2C[C@H]3[C@@H]4CCC5=CC(=O)CC[C@]5(C)[C@@]4(F)[C@@H](O)C[C@]3(C)[C@]2(C(=O)CCl)O1 [c440, Halcinonide]")
-18.5

----------
target: CYP2J2 (Homo sapiens, UniProt P51589); test: CYP2J2 P450-Glo luciferase assay (FDA Approved Drug Library screen); conditions: read-out: Average inhibition CYP2J2 (%)
Sequence (P51589 whole entry): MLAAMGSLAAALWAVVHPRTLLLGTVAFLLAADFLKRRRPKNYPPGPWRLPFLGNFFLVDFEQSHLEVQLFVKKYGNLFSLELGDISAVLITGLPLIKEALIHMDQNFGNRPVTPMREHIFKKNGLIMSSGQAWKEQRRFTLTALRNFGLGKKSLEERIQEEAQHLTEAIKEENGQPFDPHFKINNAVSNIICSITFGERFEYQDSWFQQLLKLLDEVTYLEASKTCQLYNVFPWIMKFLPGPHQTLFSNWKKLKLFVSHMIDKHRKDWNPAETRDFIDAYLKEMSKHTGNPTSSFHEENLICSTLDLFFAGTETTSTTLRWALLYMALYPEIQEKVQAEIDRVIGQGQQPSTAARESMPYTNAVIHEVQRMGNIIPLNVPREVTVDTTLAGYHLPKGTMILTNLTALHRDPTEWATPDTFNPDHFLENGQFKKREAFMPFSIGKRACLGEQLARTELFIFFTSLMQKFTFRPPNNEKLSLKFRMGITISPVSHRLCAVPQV
observable: inhibition at 10 µM (%)

>>> data_value("CCC(=O)O[C@]1(C(=O)CCl)[C@@H](C)C[C@H]2[C@@H]3CCC4=CC(=O)C=C[C@]4(C)[C@@]3(F)[C@@H](O)C[C@@]21C [c146, Clobetasol Propionate]")
78.2
>>> data_value("C#C[C@]1(O)CC[C@H]2[C@@H]3CCC4=CC(=O)CC[C@@H]4[C@H]3CC[C@@]21CC [c314, Levonorgestrel]")
64
>>> data_value("CC1(C)O[C@@H]2C[C@H]3[C@@H]4CCC5=CC(=O)CC[C@]5(C)[C@@]4(F)[C@@H](O)C[C@]3(C)[C@]2(C(=O)CCl)O1 [c440, Halcinonide]")
76.8

----------
biological target: UniProtKB P08684; test: CYP3A4 P450-Glo luciferase assay (unselective control)
Counter-ions that a name gives are not always drawn.
observable: inhibition at 30 min, 10 μM

>>> data_value("CC(COc1ccccc1)N(CCCl)Cc1ccccc1 (stereo not shown) [c089, Phenoxybenzamine•HCl]")
"17.9%"
